PROCEDURE_SUMMARY: yeast display, Sf9 membrane polyspecificity reagent, FACS + sequencing; frameworks hold sequencing errors
TEST_READOUT: polyreactivity (PSR sort gate)

Below, 4 sequences whose answers are already recorded.
| MACROMOLECULE_SEQUENCE | polyreactivity (PSR sort gate) |
| --- | --- |
| QVQLVESGGGLVQAGGSLRLSCAASGRTFASYDMGWYRQAPGKEREVVAVIRSGGSTKYADSVKGRFTISRDNAKNTVYLQMNSLKPEDTAVYYCARTYAKTYLSVYLFYYWGQGTQVTVSS | low polyreactivity |
| QVQLVESGGGLVQAGGSLRLSCAASGLIFWLNAMGWYRQAPGKERELVATITAGGDDTNYADSVKGRFTISRDNAKNTVYLQMNSLKPEDTAVYYCAKSRTRSGHYGYDYWGQGTQVTVSS | low polyreactivity |
| QVQLVESGGGLVQAGGSLRLSCAASGLIFGVNAMGWYRQAPGKERELVAGISGSTGSTYYADSVKGRFTISRDNAKNTLYVQMNSLKPEDSAVYYCAKRSRRRGYRYDYWGQGTQVTVSS | high polyreactivity |
| QVQLVESGGGLVQAGGSLRLSCAASGFTFKYYALGWYRQAPGKERELVAAIRGSGAGTYYADSVKGRFTISRDNSKNTVYLQMNSLKPEDTAVYYCNNRWTYKWDDYWGQGTQVTVSS | high polyreactivity |

Next item in the queue.
Input: Dear colleague, I am looking for the recorded polyreactivity (PSR sort gate) of the following sequence: QVQLVESGGGLVQAGGSLRLSCAASGRIFRVYAMGWYRQAPGKERELVAAISWSGGRTYYADSVKGRFTISRDNAKNTVYLQMNSLKPEDTAVYYCAAVRYERGLWSDYWGQGTQVTVSS
Output: high polyreactivity
